These measurements were taken from the NIST ThermoML archive (doi:10.1016/j.jct.2017.07.012).

assay: activity coefficient (dimensionless); of the first substance listed, at infinite dilution; xn = mol fraction of the nth substance listed; details: 343.15 K; 101.33 kPa; Liquid; Chromatography; x1 = 0
Items are presented alongside their recorded activity coefficient.
measured_property: activity coefficient

>>> test_value("CCCCCO [pentan-1-ol] + CCCCn1cc[n+](C)c1.[O-][Cl+3]([O-])([O-])[O-]")
3.55
>>> test_value("C1=CCCCC1 [cyclohexene] + CCCCn1cc[n+](C)c1.[O-][Cl+3]([O-])([O-])[O-]")
14.4
>>> test_value("CCCCCCCCCC [decane] + CCCCn1cc[n+](C)c1.[O-][Cl+3]([O-])([O-])[O-]")
200
>>> test_value("Cc1ccccc1 [toluene] + CCCCn1cc[n+](C)c1.[O-][Cl+3]([O-])([O-])[O-]")
3.29
>>> test_value("CCCCCC [hexane] + CCCCn1cc[n+](C)c1.[O-][Cl+3]([O-])([O-])[O-]")
112
>>> test_value("CO [methanol] + CCCCn1cc[n+](C)c1.[O-][Cl+3]([O-])([O-])[O-]")
1.01
>>> test_value("Cc1ccccc1C [1,2-dimethylbenzene] + CCCCn1cc[n+](C)c1.[O-][Cl+3]([O-])([O-])[O-]")
4.27
>>> test_value("C=Cc1ccccc1 [styrene] + CCCCn1cc[n+](C)c1.[O-][Cl+3]([O-])([O-])[O-]")
2.42
>>> test_value("c1ccccc1 [benzene] + CCCCn1cc[n+](C)c1.[O-][Cl+3]([O-])([O-])[O-]")
2.08
>>> test_value("CC(C)CO [2-methyl-1-propanol] + CCCCn1cc[n+](C)c1.[O-][Cl+3]([O-])([O-])[O-]")
2.48
>>> test_value("O [water] + CCCCn1cc[n+](C)c1.[O-][Cl+3]([O-])([O-])[O-]")
1.01
>>> test_value("C1CCCCC1 [cyclohexane] + CCCCn1cc[n+](C)c1.[O-][Cl+3]([O-])([O-])[O-]")
36.2
>>> test_value("CCCO [propan-1-ol] + CCCCn1cc[n+](C)c1.[O-][Cl+3]([O-])([O-])[O-]")
1.87
>>> test_value("CCC(C)O (configuration not stated) [butan-2-ol] + CCCCn1cc[n+](C)c1.[O-][Cl+3]([O-])([O-])[O-]")
2.47
>>> test_value("ClCCl [dichloromethane] + CCCCn1cc[n+](C)c1.[O-][Cl+3]([O-])([O-])[O-]")
1.1
>>> test_value("Cc1ccc(C)cc1 [1,4-dimethylbenzene] + CCCCn1cc[n+](C)c1.[O-][Cl+3]([O-])([O-])[O-]")
5.13
>>> test_value("ClC(Cl)Cl [trichloromethane] + CCCCn1cc[n+](C)c1.[O-][Cl+3]([O-])([O-])[O-]")
1.1

* * *

assay: activity coefficient (dimensionless); of the first substance listed, at infinite dilution; xn = mol fraction of the nth substance listed; settings: 353.15 K; 101.33 kPa; Liquid; Chromatography; x1 = 0
Items are presented alongside their recorded activity coefficient.
measured_property: activity coefficient

>>> test_value("C1CCOC1 [tetrahydrofuran] + CCCCn1cc[n+](C)c1.[O-][Cl+3]([O-])([O-])[O-]")
2.06
>>> test_value("CC(C)CC(C)(C)C [2,2,4-trimethylpentane] + CCCCn1cc[n+](C)c1.[O-][Cl+3]([O-])([O-])[O-]")
125
>>> test_value("C=Cc1ccccc1 [styrene] + CCCCn1cc[n+](C)c1.[O-][Cl+3]([O-])([O-])[O-]")
2.5
>>> test_value("CC(C)CCO [3-methylbutan-1-ol] + CCCCn1cc[n+](C)c1.[O-][Cl+3]([O-])([O-])[O-]")
2.97
>>> test_value("CC#N [acetonitrile] + CCCCn1cc[n+](C)c1.[O-][Cl+3]([O-])([O-])[O-]")
0.69
>>> test_value("ClC(Cl)Cl [trichloromethane] + CCCCn1cc[n+](C)c1.[O-][Cl+3]([O-])([O-])[O-]")
1.16
>>> test_value("CCCCCCCC [octane] + CCCCn1cc[n+](C)c1.[O-][Cl+3]([O-])([O-])[O-]")
127
>>> test_value("CC(C)CO [2-methyl-1-propanol] + CCCCn1cc[n+](C)c1.[O-][Cl+3]([O-])([O-])[O-]")
2.32

* * *

assay: activity coefficient (dimensionless); of the first substance listed, at infinite dilution; xn = mol fraction of the nth substance listed; conditions: 333.15 K; 101.33 kPa; Liquid; Chromatography; x1 = 0
Items are presented alongside their recorded activity coefficient.
measured_property: activity coefficient

>>> test_value("CCCCCO [pentan-1-ol] + CCCCn1cc[n+](C)c1.[O-][Cl+3]([O-])([O-])[O-]")
3.88
>>> test_value("CCC(C)O (stereo unspecified) [butan-2-ol] + CCCCn1cc[n+](C)c1.[O-][Cl+3]([O-])([O-])[O-]")
2.61
>>> test_value("CC(C)CCO [3-methylbutan-1-ol] + CCCCn1cc[n+](C)c1.[O-][Cl+3]([O-])([O-])[O-]")
3.49
>>> test_value("Cc1ccc(C)cc1 [1,4-dimethylbenzene] + CCCCn1cc[n+](C)c1.[O-][Cl+3]([O-])([O-])[O-]")
4.91
>>> test_value("CCCCCCCCCC [decane] + CCCCn1cc[n+](C)c1.[O-][Cl+3]([O-])([O-])[O-]")
204
>>> test_value("CCOC(C)=O [ethyl acetate] + CCCCn1cc[n+](C)c1.[O-][Cl+3]([O-])([O-])[O-]")
2.54
>>> test_value("CCO [ethanol] + CCCCn1cc[n+](C)c1.[O-][Cl+3]([O-])([O-])[O-]")
1.5
>>> test_value("C1CCOC1 [tetrahydrofuran] + CCCCn1cc[n+](C)c1.[O-][Cl+3]([O-])([O-])[O-]")
1.94
>>> test_value("CCCCCC [hexane] + CCCCn1cc[n+](C)c1.[O-][Cl+3]([O-])([O-])[O-]")
107
>>> test_value("Cc1cccc(C)c1 [1,3-dimethylbenzene] + CCCCn1cc[n+](C)c1.[O-][Cl+3]([O-])([O-])[O-]")
5.08
>>> test_value("CCCCO [butan-1-ol] + CCCCn1cc[n+](C)c1.[O-][Cl+3]([O-])([O-])[O-]")
2.73
>>> test_value("CC(C)O [propan-2-ol] + CCCCn1cc[n+](C)c1.[O-][Cl+3]([O-])([O-])[O-]")
2.06
>>> test_value("Cc1ccccc1 [toluene] + CCCCn1cc[n+](C)c1.[O-][Cl+3]([O-])([O-])[O-]")
3.14
>>> test_value("CC(C)CO [2-methyl-1-propanol] + CCCCn1cc[n+](C)c1.[O-][Cl+3]([O-])([O-])[O-]")
2.67
>>> test_value("ClC(Cl)(Cl)Cl [tetrachloromethane] + CCCCn1cc[n+](C)c1.[O-][Cl+3]([O-])([O-])[O-]")
4.22
>>> test_value("CC(C)=O [acetone] + CCCCn1cc[n+](C)c1.[O-][Cl+3]([O-])([O-])[O-]")
0.98

* * *

assay: activity coefficient (dimensionless); of the first substance listed, at infinite dilution; xn = mol fraction of the nth substance listed; conditions: 303.15 K; 101.33 kPa; Liquid; Chromatography; x1 = 0
measured_property: activity coefficient

>>> test_value("C1CCCCC1 [cyclohexane] + CCCCn1cc[n+](C)c1.[O-][Cl+3]([O-])([O-])[O-]")
34.5
>>> test_value("ClCCl [dichloromethane] + CCCCn1cc[n+](C)c1.[O-][Cl+3]([O-])([O-])[O-]")
0.84
>>> test_value("CCCCCCCC [octane] + CCCCn1cc[n+](C)c1.[O-][Cl+3]([O-])([O-])[O-]")
109
>>> test_value("CC(C)CC(C)(C)C [2,2,4-trimethylpentane] + CCCCn1cc[n+](C)c1.[O-][Cl+3]([O-])([O-])[O-]")
100

* * *

experiment: activity coefficient (dimensionless); of the first substance listed, at infinite dilution; xn = mol fraction of the nth substance listed; details: 353.15 K; 101.33 kPa; Liquid; Chromatography; x1 = 0
measured_property: activity coefficient

>>> test_value("CCO [ethanol] + CCCCn1cc[n+](C)c1.[O-][Cl+3]([O-])([O-])[O-]")
1.44
>>> test_value("CCCCCCCCCC [decane] + CCCCn1cc[n+](C)c1.[O-][Cl+3]([O-])([O-])[O-]")
192
>>> test_value("C1CCCCC1 [cyclohexane] + CCCCn1cc[n+](C)c1.[O-][Cl+3]([O-])([O-])[O-]")
37.5
>>> test_value("ClC(Cl)(Cl)Cl [tetrachloromethane] + CCCCn1cc[n+](C)c1.[O-][Cl+3]([O-])([O-])[O-]")
4.67
